All figures here come from patent US20020128434A1.

tested.on: Cathepsin B, purified from human liver (Homo sapiens)
Construct: Cathepsin B, purified from human liver; purchased Enzyme Systems Products (Dublin, Calif.); host or cells: human liver (tissue-purified)
experiment.notes: In vitro evaluation of inhibitors with purified cathepsin B
Assay type: biochemical
condition.summary: purified cathepsin B; read-out: IC50 Cat B
readout.kind: IC50 (nM)

I = Cc1cc(OCC(=O)[C@H](CCc2ccccc2)NC(=O)[C@H](Cc2ccccc2)NC(=O)N2CCOCC2)cc(=O)o1
II = O=C1OCC(OCC(=O)[C@H](CCc2ccccc2)NC(=O)[C@H](Cc2ccccc2)NC(=O)N2CCOCC2)=C1c1ccccc1
III = COc1ccc(C[C@H](NC(=O)N2CCOCC2)C(=O)N[C@@H](CCCCN)C(=O)COC2=C(c3ccccc3)C(=O)OC2)cc1
Req: Parameters: sort_field (IC50), sort_dir (desc). A ranking is expressed here by listing the labels in the requested order.
Resp: I, II, III
(I: 112 nM, II: 36 nM, III: 8 nM)
